Where these numbers come from: PubChem BioAssay (NCI)

Quick reference: TGI of the listed items.
# System: SF-539 CNS
# Test: NCI tumour cell line growth inhibition, 48 h

Worked cases, TGI given:
CN(O)C(=O)c1ccccc1 ... > 100 µM
COC(=O)C1=C(C)NC(C)=C(C(=O)OC)C1c1ccc(NO)cc1 ... 29.6 µM
CCCCC/C=C\C=C1\C(=O)C=C[C@@H]1C/C=C\CCCC(=O)O ... 12.8 µM

Ask: What does the record list as TGI for N#CCCC1(CCC#N)CCc2ccccc2C1=O ?
Reply: > 100 µM

Ask: What does the record list as TGI for Cc1c(NC(=O)c2cc(C(N)=O)nc3cc(F)ccc23)c(C(F)(F)F)nn1Cc1ccc(C#N)cc1 ?
Reply: 49.6 µM

Ask: What does the record list as TGI for Cc1ncc(CCl)c2c1OC(C)(C)OC2 ?
Reply: > 100 µM

---

# Tested on: 786-0 renal
# Test: NCI tumour cell line growth inhibition, 48 h
Quick reference: TGI of the listed items.
# output: bare number, implied unit µM

CN(CCNC(=O)c1[nH]nc2c1Cc1ccccc1-2)CCNC(=O)c1[nH]nc2c1Cc1ccccc1-2 ... 30.6
C=C(C(=O)OC)[C@H]1CC/C(C)=C/CC[C@@](C)(O)C=CC[C@@]2(C)O[C@@H]2C1 ... 34.8
CCN1C/C(=C\c2cc(OC)c(OC)c(OC)c2)C2=NN(c3ccccc3)C(c3cc(OC)c(OC)c(OC)c3)C2C1 (centres undefined) ... 1.48
COc1cc(C(=O)/C=C/c2c(-c3cccs3)nc3sc(C)cn23)cc(OC)c1OC ... 38.2

Ask: What does the record list as TGI for Nc1nc(-c2cccc3ccccc23)cc2ccccc12 ?
Reply: 13.4

---

Quick reference: GI50 of the listed items.
# Tested on: DU-145 prostate
# Test: NCI tumour cell line growth inhibition, 48 h

Worked cases, GI50 given:
COc1ccc(C2=C(c3cn(C)c4ccccc34)C(=O)NC2=O)cc1 ... > 25000 nM
COC(=O)c1c2c(c[n+]([O-])c1C)C(=O)C=C(NCc1ccccc1)C2=O ... 172 nM
CCCCCCCCCCCCCCCCCCOP(=O)([O-])OC1CC[N+](C)(C)CC1 ... > 10000 nM
CC#Cc1nc2ccccc2c(=O)[nH]1 ... 4880 nM
CCOC(=O)c1ccc2c(c1)c1c(C)c3ccncc3c(C)c1n2C ... 546 nM

Ask: What does the record list as GI50 for Nc1nc(-c2cccc3ccccc23)cc2ccccc12 ?
Reply: 377 nM

Ask: What does the record list as GI50 for Cc1cccc(NC(=O)c2sc3nc4c(cc3c2N)CCCC4)c1 ?
Reply: 13400 nM

Ask: What does the record list as GI50 for Nc1nc2c(c3cnccc13)C(c1cccc(Br)c1)Cc1cnccc1-2 (stereo not given) ?
Reply: 344 nM

Ask: What does the record list as GI50 for CC1(C)CCC(S(=O)(=O)c2ccc3c(c2)/C(=N\O)c2cc(S(=O)(=O)N4CCN(c5ccc(F)cc5O)CC4)ccc2-3)CC1 ?
Reply: 51.7 nM

Ask: What does the record list as GI50 for C=C(C)[C@@H]1CC[C@]2(CNCCO)CC[C@]3(C)[C@H](CC[C@@H]4[C@@]5(C)CCC(N)[C@@](C)(CO)[C@@H]5CC[C@]43C)[C@@H]12 (stereo not given in full) ?
Reply: 1650 nM

---

# Tested on: HCT-116 colon
# Test: NCI tumour cell line growth inhibition, 48 h; in the data active means GI50 below about 0.43 µM; inactive means the rest
Just give me one of these, please: TRUE for active, FALSE for inactive

Ask: Could you check what this test reported for COC1C(CO)OC(n2c3ccccc3c3c4c(c5c6ccccc6[nH]c5c32)C(=O)NC4=O)C(OC(=O)C(N)CCCCN)C1O (configuration not stated) ?
Reply: TRUE

Ask: Could you check what this test reported for O=c1c2cc(I)ccc2nc(-c2cccs2)n1-c1ccc(S(=O)(=O)Nc2nccs2)cc1 ?
Reply: FALSE

Ask: Could you check what this test reported for CCC[CH2][Sn]([CH2]CCC)([O]C(=O)Cc1ccc(F)cc1)[O]C(=O)Cc1ccc(F)cc1 ?
Reply: FALSE

Ask: Could you check what this test reported for Cc1cc(OCc2n[nH]c(=S)n2/N=C/c2ccc(F)cc2)ccc1Cl ?
Reply: FALSE

Ask: Could you check what this test reported for O=C(OC(CNc1c(C(=O)c2ccccc2)c(=O)n(Cc2ccccc2)c(=O)n1Cc1ccccc1)CN1CCOCC1)c1ccccc1 (configuration not stated) ?
Reply: FALSE

Ask: Could you check what this test reported for C=C(C)[C@@H]1CC[C@]2(CNCCO)CC[C@]3(C)[C@H](CC[C@@H]4[C@@]5(C)CCC(N)[C@@](C)(CO)[C@@H]5CC[C@]43C)[C@@H]12 (some centres not stated) ?
Reply: FALSE

---

Quick reference: TGI of the listed items.
# System: TK-10 renal
# Test: NCI tumour cell line growth inhibition, 48 h

Worked cases, TGI given:
Cc1ccc(C(=O)Nc2ccc(S(=O)(=O)O)c3cc(S(=O)(=O)O)cc(S(=O)(=O)O)c23)cc1NC(=O)Nc1cc(C(=O)Nc2ccc(S(=O)(=O)O)c3cc(S(=O)(=O)O)cc(S(=O)(=O)O)c23)ccc1C ... > 87.5 µM
NC(CSC(=O)c1ccccc1)C(=O)O (stereo unspecified) ... > 100 µM
CC/C(CC(=O)CCC(=O)Nc1c(C)cccc1C)=N\NC(=O)NN ... > 100 µM

Ask: What does the record list as TGI for CC1CC2=C(C(=O)O1)C(c1ccccc1)Nc1ccccc1N2 (stereo unspecified) ?
Reply: > 100 µM

Ask: What does the record list as TGI for Cc1[nH]c2c(C)cccc2c1C1Cc2ccccc2N1 (stereo unspecified) ?
Reply: 62.2 µM

Ask: What does the record list as TGI for COc1ccc(Nc2nc3cc(C(F)(F)F)ccc3nc2C(=O)O)cc1OC ?
Reply: > 100 µM

Ask: What does the record list as TGI for CCCCCCCCCCCCC[N+](C)(C)Cc1ccccc1 ?
Reply: 2.21 µM

Ask: What does the record list as TGI for CCCCC/C=C\C=C1\C(=O)C=C[C@@H]1C/C=C\CCCC(=O)O ?
Reply: 18 µM

Ask: What does the record list as TGI for CCN1CCN(c2cc(C)nc(N(CCCNc3ccnc4cc(Cl)ccc34)Cc3cccs3)n2)CC1 ?
Reply: 4.09 µM

Ask: What does the record list as TGI for O=c1[nH]c2cc(C(F)(F)F)ccc2nc1CBr ?
Reply: 27.9 µM

---

# System: MCF7 breast
# Test: NCI tumour cell line growth inhibition, 48 h
Property name: TGI

Worked cases, TGI given:
Cn1cc(NC(=O)c2cc(NC(=O)c3cc(NC=O)cn3C)cn2C)cc1C(=O)NCCC(=N)N ... > 100 µM
COc1c(OCCCN2CCOCC2)ccc2c3n(c(=NC(=O)c4cnc(N)nc4)nc12)CCN3 ... > 100 µM
COC(=O)c1c2c(c[n+]([O-])c1C)C(=O)C=C(NCc1ccccc1)C2=O ... 0.361 µM
O=C1NC(=NCCc2cccs2)S/C1=C\c1ccc2ncccc2c1 ... > 25 µM

Ask: What does the record list as TGI for CC(C)(Cl)C(Cl)CC/C(CBr)=C(\Cl)CCl (stereo unspecified) ?
Reply: 32.1 µM

Ask: What does the record list as TGI for Cc1cc(OCc2n[nH]c(=S)n2/N=C/c2ccc(F)cc2)ccc1Cl ?
Reply: > 100 µM

Ask: What does the record list as TGI for O=C1/C(=C/c2cccc(O)c2)COc2ccccc21 ?
Reply: > 43.6 µM

Ask: What does the record list as TGI for CC(=O)OCC1OC(OC2=C(CC=C(C)C)C(=O)c3ccccc3C2=O)C(OC(C)=O)C(OC(C)=O)C1OC(C)=O (stereo unspecified) ?
Reply: 4.73 µM

Ask: What does the record list as TGI for COc1ccc(-c2[nH]c(=O)n(C3OC(CO)C(O)C(O)C3O)c(=O)c2C#N)cc1 (stereo unspecified) ?
Reply: > 100 µM

Ask: What does the record list as TGI for COC(=O)NC(Nc1ccc(Cl)cc1Cl)(C(F)(F)F)C(F)(F)F ?
Reply: > 100 µM

Ask: What does the record list as TGI for Cc1sccc1C(=S)Nc1ccc(Cl)c(/C=N/OC(C)(C)C)c1 ?
Reply: 26.7 µM

---

# Tested on: SNB-75 CNS
# Test: NCI tumour cell line growth inhibition, 48 h
Quick reference: TGI of the listed items.

Worked cases, TGI given:
CCC[CH2][Sn]([CH2]CCC)([O]C(=O)Cc1ccc(F)cc1)[O]C(=O)Cc1ccc(F)cc1 ... 2.1 µM
C=CCNC(=O)/C=C\C(=O)O ... > 100 µM
Nc1ccc2c(c1)Cc1cc(Cl)c(Cl)cc1-2 ... > 100 µM

Ask: Requested read-out TGI, target or system SNB-75 CNS, entry COc1ccc2c(CCC(c3ccccc3)c3ccccc3)c3[n+](cc2c1OC)CCc1cc2c(cc1-3)OCO2
Reply: 1.84 µM

Ask: Requested read-out TGI, target or system SNB-75 CNS, entry CN(C)CCCNC(=O)CCNC(=O)c1cc(NC(=O)c2cc(NC(=O)c3cc(NC(=O)CCCNC(=O)c4cc(NC(=O)c5cc(NC(=O)c6nccn6C)cn5C)cn4C)cn3C)cn2C)cn1C
Reply: > 100 µM

Ask: Requested read-out TGI, target or system SNB-75 CNS, entry CC(C)(O)c1coc(S(=O)(=O)/N=C(\O)Nc2c3c(cc4c2CCC4)CCC3)c1
Reply: > 100 µM

Ask: Requested read-out TGI, target or system SNB-75 CNS, entry COc1c(CC(=O)c2ccccc2)c2ccccc2n1C(C)=O
Reply: > 100 µM

Ask: Requested read-out TGI, target or system SNB-75 CNS, entry CC(NC(=O)C(CC(=O)OCc1ccccc1)NC(=O)OCc1ccccc1)c1ccccc1 (centres undefined)
Reply: > 100 µM

Ask: Requested read-out TGI, target or system SNB-75 CNS, entry CCN(C1=CC(=O)NC2CCCCN12)c1ccccc1 (centres undefined)
Reply: > 100 µM

Ask: Requested read-out TGI, target or system SNB-75 CNS, entry CCCCCCCCCCCCC[N+](C)(C)Cc1ccccc1
Reply: 2.97 µM

Ask: Requested read-out TGI, target or system SNB-75 CNS, entry COc1ccc(-c2[nH]c(=O)n(C3OC(CO)C(O)C(O)C3O)c(=O)c2C#N)cc1 (centres undefined)
Reply: > 100 µM

Ask: Requested read-out TGI, target or system SNB-75 CNS, entry Cc1ncc([N+](=O)[O-])n1CC(O)Cn1ccnc1[N+](=O)[O-] (centres undefined)
Reply: > 100 µM
